Target: human recombinant histamine H2 receptor (Homo sapiens, UniProt P25021)
Construct: expressed in transfected cells; host or cells: Chinese hamster ovary (CHO) K1 cells
Sequence (P25021 whole entry): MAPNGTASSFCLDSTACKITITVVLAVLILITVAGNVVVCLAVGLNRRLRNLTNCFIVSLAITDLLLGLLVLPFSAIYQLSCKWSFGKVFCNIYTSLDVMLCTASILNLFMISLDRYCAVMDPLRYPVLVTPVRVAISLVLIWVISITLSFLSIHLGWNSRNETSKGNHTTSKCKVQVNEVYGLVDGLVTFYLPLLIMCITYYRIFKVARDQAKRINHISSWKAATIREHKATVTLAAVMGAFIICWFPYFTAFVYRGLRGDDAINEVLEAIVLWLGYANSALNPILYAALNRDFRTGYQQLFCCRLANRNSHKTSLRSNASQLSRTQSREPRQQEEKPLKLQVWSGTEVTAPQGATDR
Assay: Histamine H2 radioligand binding ([125I]Aminopotentidine)
Conditions: read-out: Histamine Binding (1 μM) H2, percent inhibition of specific binding, 1 μM
VALUE KIND: inhibition at 1 µM (%)
Numbers only, in %.

A selection of reference data follows.
> print(dat)
                                   molecule  unit.abbrev  recorded.measurement
1  COc1ccc(C(C)(O)Cn2c3c(c4cc(Cl)ccc42)CN(C)CC3)cc1 (centres unmarked)            %                    82
2   Cc1ccc2c(c1)c1c(n2CC#Cc2ccccn2)CCN(C)C1            %                    30
3  Cc1ccc(/C=C/Cn2c3c(c4cc(Cl)ccc42)CN(C)CC3)cn1            %                    48
4  COC(=O)c1ccc2c(c1)c1c(n2C#Cc2ccc(F)cc2)CCN(C)C1            %                    51
5  C/C(=C\n1c2c(c3ccc(Cl)cc31)CN(C)CC2)c1ccc(F)cc1            %                   102
6  Cc1ccc2c(c1)c1c(n2/C=C/c2ccccc2)CCN(C)C1            %                    97
7  C/C(=C\n1c2c(c3cc(C)ccc31)CN(C)CC2)c1ccc(Cl)c(Cl)c1            %                    97
8  CN1CCc2c(c3cc(Cl)ccc3n2CC(O)c2ccncc2)C1 (centres unmarked)            %                    47

// batch mode: one inhibition at 1 µM value per listed entry
1. Cc1ccc2c(c1)c1c(n2/C=C(\CC(=O)O)c2ccc(F)cc2)CCN(C)C1
2. C=C(Cn1c2c(c3cc(Cl)ccc31)CN(C)CC2)c1ccc(C)nc1
3. C/C(=C\n1c2c(c3cccc(F)c31)CN(C)CC2)c1ccncc1
4. C/C(=C\n1c2c(c3cc(C)ccc31)CN(C)CC2)c1cc(Cl)cc(Cl)c1

Result:
1. 20
2. 85
3. 44
4. 98

----------
Molecular target: human recombinant serotonin (5-Hydroxytryptamine) 5-HT7 receptor (Homo sapiens)
Sequence (P34969 whole entry): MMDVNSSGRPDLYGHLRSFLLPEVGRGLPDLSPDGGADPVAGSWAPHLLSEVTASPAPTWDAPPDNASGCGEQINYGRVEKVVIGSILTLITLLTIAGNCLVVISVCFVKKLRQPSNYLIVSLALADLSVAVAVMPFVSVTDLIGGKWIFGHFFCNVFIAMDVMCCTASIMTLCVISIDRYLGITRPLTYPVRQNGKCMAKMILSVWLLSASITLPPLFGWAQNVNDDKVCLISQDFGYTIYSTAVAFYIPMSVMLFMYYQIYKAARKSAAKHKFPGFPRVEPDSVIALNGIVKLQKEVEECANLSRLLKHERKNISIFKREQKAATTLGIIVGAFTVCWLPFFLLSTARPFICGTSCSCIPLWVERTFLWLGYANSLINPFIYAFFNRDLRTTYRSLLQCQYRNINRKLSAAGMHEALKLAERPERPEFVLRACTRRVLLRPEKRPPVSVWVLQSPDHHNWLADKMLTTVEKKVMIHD
Assay: Serotonin 5-HT7 radioligand binding ([3H]LSD)
Settings: compound at 0.1 μM; read-out: Inhibition of ligand binding, Serotonin 5-HT7 (percent inhibition of specific binding)
Assign met whenever inhibition at 0.1 µM does not fall below 50%; assign not met whenever it does.

The following compounds have reported results that may help.
> print(dat)
                                   compound                              study.target  class.label
1  C/C(=C\n1c2c(c3cc(C(F)(F)F)ccc31)CN(C)CC2)c1ccc(F)cc1  human recombinant serotonin (5-Hydroxytryptamine) 5-HT7 receptor (Homo sapiens)          met
2  C/C(=C\n1c2c(c3ccc(C(F)(F)F)cc31)CN(C)CC2)c1ccc(C)nc1  human recombinant serotonin (5-Hydroxytryptamine) 5-HT7 receptor (Homo sapiens)      not met

Q: Please check the record C/C(=C\n1c2c(c3cc(Cl)ccc31)CN(C)C(C)C2)c1ccncc1 (stereo not shown) and state if its inhibition at 0.1 µM is at or above 50%.
Result: met

Q: Please check the record `C/C(=C\n1c2c(c3cc(C)ccc31)CN(C)CC2)c1ccncn1` and state if its inhibition at 0.1 µM is at or above 50%.
Result: met

Q: Please check the record CCC(O)(Cn1c2c(c3cc(C)ccc31)CN(C)CC2)c1ccncc1 (stereo not shown) and state if its inhibition at 0.1 µM is at or above 50%.
Result: not met

Q: Please check the record CN1CCc2c(c3cc(Cl)ccc3n2CC(C)(O)c2cnccn2)C1 (stereo not shown) and state if its inhibition at 0.1 µM is at or above 50%.
Result: not met

Q: Please check the record C/C(=C\n1c2c(c3cc(C)ccc31)CN(C)C(C)C2)c1ccc(F)cc1 (stereo not shown) and state if its inhibition at 0.1 µM is at or above 50%.
Result: met

Q: Please check the record `C/C(=C\n1c2c(c3cc(C(C)(C)C)ccc31)CN(C)CC2)c1ccncc1` and state if its inhibition at 0.1 µM is at or above 50%.
Result: not met

Q: Please check the record `C/C(=C\n1c2c(c3cc(Cl)ccc31)CN(C)CC2)c1ccncc1` and state if its inhibition at 0.1 µM is at or above 50%.
Result: met

Q: Please check the record CCC(O)(Cn1c2c(c3cc(Cl)ccc31)CN(C)CC2)c1ccncc1 (stereo not shown) and state if its inhibition at 0.1 µM is at or above 50%.
Result: not met

Q: Please check the record C/C(=C\n1c2c(c3cc(Cl)ccc31)CN(C)C(C)C2)c1ccc(C)nc1 (stereo not shown) and state if its inhibition at 0.1 µM is at or above 50%.
Result: met

Q: Please check the record `CC/C(=C/n1c2c(c3cc(C)ccc31)CN(C)CC2)c1ccncc1` and state if its inhibition at 0.1 µM is at or above 50%.
Result: met

Q: Please check the record `C/C(=C\n1c2c(c3cc(C)ccc31)CN(C)CC2)c1ccccn1` and state if its inhibition at 0.1 µM is at or above 50%.
Result: met

----------
Biological target: human recombinant serotonin (5-Hydroxytryptamine) 5-HT2B receptor (Homo sapiens)
Construct: expressed in transfected cells; host or cells: Chinese hamster ovary (CHO-K1) cells
Sequence (P41595 whole entry): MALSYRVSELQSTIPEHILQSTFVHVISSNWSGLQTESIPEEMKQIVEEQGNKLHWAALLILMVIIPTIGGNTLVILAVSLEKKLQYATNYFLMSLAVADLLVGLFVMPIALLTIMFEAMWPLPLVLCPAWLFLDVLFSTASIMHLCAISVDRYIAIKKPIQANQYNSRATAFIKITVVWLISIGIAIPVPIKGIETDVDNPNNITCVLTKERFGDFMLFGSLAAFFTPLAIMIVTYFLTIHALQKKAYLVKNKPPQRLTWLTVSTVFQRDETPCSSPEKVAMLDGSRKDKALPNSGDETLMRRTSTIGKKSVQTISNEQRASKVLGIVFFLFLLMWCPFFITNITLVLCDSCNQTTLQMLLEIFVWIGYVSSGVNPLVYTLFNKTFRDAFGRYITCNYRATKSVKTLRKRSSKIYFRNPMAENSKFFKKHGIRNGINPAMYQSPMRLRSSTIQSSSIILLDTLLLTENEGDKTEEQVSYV
Assay: Serotonin 5-HT2B radioligand binding ([3H]LSD)
Conditions: compound at 1 μM; read-out: Inhibition of ligand binding, Serotonin 5-HT2B (percent inhibition of specific binding)
VALUE KIND: inhibition at 1 µM (%)
Answers are plain numbers, in %.

A selection of reference data follows.
> print(dat)
                                   compound  unit.abbrev  recorded.measurement
1  CCN1CCc2c(c3ccccc3n2CC(O)c2ccc(C)cc2)C1 (racemic) [Compound 44]            %                    11
2  Cc1ccc(C(O)Cn2c3c(c4cc(C)ccc42)CN(C)CC3)cc1 (racemic) [Compound 43]            %                    70
3  CCN1CCc2c(c3cc(C)ccc3n2CC(O)c2ccc(C)cc2)C1 (racemic) [Compound 51]            %                    32

// next item, inhibition at 1 µM requested
Q: What value of inhibition at 1 µM has been reported for the following compound? C/C(=C\n1c2c(c3cc(Cl)ccc31)CN(C)CC2)c1ccc(F)cc1 [Compound 83]
Result: 88

----------
Target: human dopamine D2L receptor (Homo sapiens, UniProt P14416)
Sequence (P14416 whole entry): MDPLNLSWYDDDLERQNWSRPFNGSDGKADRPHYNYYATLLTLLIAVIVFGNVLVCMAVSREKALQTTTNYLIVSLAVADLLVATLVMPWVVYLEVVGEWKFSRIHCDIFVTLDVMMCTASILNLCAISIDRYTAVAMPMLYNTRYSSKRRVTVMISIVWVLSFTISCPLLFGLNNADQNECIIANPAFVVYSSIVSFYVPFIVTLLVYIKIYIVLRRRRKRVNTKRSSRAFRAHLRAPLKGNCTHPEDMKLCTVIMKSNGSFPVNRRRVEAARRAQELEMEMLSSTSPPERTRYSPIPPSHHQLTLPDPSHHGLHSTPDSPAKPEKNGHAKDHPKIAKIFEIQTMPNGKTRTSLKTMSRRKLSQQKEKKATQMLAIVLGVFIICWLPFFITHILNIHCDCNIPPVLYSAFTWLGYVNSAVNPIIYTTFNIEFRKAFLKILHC
Assay: Dopamine D2L radioligand binding ([3H]Spiperone)
Settings: percent inhibition of specific binding; compound at 1 μM; read-out: Inhibition of ligand binding, Dopamine D2L
From the text: Non-specific binding was estimated in the presence of […] Haloperidol. Receptor proteins were filtered and washed, the filters were then counted to determine [^3H]Spiperone specifically bound. […] Biochemical assay results are presented as the percent inhibition of specific binding in Table 9.
VALUE KIND: inhibition at 1 µM (%)
Numbers only, in %.

> print(dat)
                                   molecule  unit.abbrev  recorded.measurement
1  C=C(Cn1c2c(c3cc(C)ccc31)CN(C)CC2)c1ccc(F)cc1            %                    91
2  C/C(=C\n1c2c(c3cc(C(F)(F)F)ccc31)CN(C)CC2)c1ccncc1            %                    93
3  C/C(=C\n1c2c(c3cc(C)ccc31)C(C)N(C)C(C)C2)c1ccncc1 (stereo not shown)            %                    53

Q: What value of inhibition at 1 µM has been reported for the following molecule? CN1CCc2c(c3cc(Cl)ccc3n2CC(C)(O)c2cccnc2)C1 (stereo not shown)
Result: 19

----------
Can you tell me inhibition at 1 µM for the items I'm about to list?
Molecular target: human recombinant serotonin (5-Hydroxytryptamine) 5-HT7 receptor (Homo sapiens)
Assay: Serotonin 5-HT7 radioligand binding ([3H]LSD)
Conditions: compound at 1 μM; read-out: Inhibition of ligand binding, Serotonin 5-HT7 (percent inhibition of specific binding)
Give bare numbers, in %.

A selection of reference data follows.
> print(dat)
                                   compound          value.kind  recorded.measurement
1  CCN1CCc2c(c3ccccc3n2CC(O)c2ccc(C)cc2)C1 (racemic)  inhibition at 1 µM                    42
2  Cc1ccc2c(c1)c1c(n2/C=C(\CC(=O)O)c2ccc(F)cc2)CCN(C)C1  inhibition at 1 µM                    36
3  CCC(O)(Cn1c2c(c3cc(Cl)ccc31)CN(C)CC2)c1ccc(F)cc1 (stereo not shown)  inhibition at 1 µM                    97
4  CN1CCc2c(c3cccc(Cl)c3n2CC(C)(O)c2ccncc2)C1 (stereo not shown)  inhibition at 1 µM                    54
5  C/C(=C\n1c2c(c3ccc(Cl)cc31)CN(C)CC2)c1ccc(F)cc1  inhibition at 1 µM                    97

// batch mode: one inhibition at 1 µM value per listed entry
1. C/C(=C\n1c2c(c3cc(Cl)ccc31)CN(C)CC2)c1cccc(F)c1
2. COc1ccc(/C(C)=C/n2c3c(c4cc(C)ccc42)CN(C)CC3)cc1
3. C/C(=C\n1c2c(c3cc(Cl)ccc31)CN(C)CC2)c1cc(Cl)cc(Cl)c1
4. CCN1CCc2c(c3cc(C)ccc3n2CC(O)c2ccc(C)cc2)C1 (racemic)
5. Cc1ccc2c(c1)c1c(n2C#Cc2ccc(F)cc2)CCN(C)C1

Result:
1: 99; 2: 93; 3: 90; 4: 91; 5: 96

// batch mode: one inhibition at 1 µM value per listed entry
1. CCC/C=C(/Cn1c2c(c3cc(Cl)ccc31)CN(C)CC2)c1ccc(F)cc1
2. Cc1ccc2c(c1)c1c(n2CC(O)c2ccc(F)cc2)CCN(C)C1 (stereo not shown)
3. CN1CCc2c(c3cc(Cl)ccc3n2C/C(=C/CCO)c2ccc(F)cc2)C1

Result:
[90, 100, 93]
